- System: HL-60(TB) leukemia
- Experiment Description: NCI tumour cell line growth inhibition, 48 h
Listing of entries alongside the reported TGI.

Known results for compounds:
Reported TGI for HL-60(TB) leukemia, given Cc1cc(C)nc(NS(=O)(=O)c2ccc(Nc3c4ccccc4nc4c(C(=O)NNCCO)cccc34)cc2)n1 ?
> 100 µM

Reported TGI for HL-60(TB) leukemia, given CC(O)c1cccc(NCc2c3ccccc3c(=O)n3c2oc2ccccc23)c1 (stereo unspecified) ?
> 100 µM

Others:
Reported TGI for HL-60(TB) leukemia, given OC1(CCc2ccccc2)COC(C(F)(F)F)(C(F)(F)F)C1 (stereo unspecified) ?
> 100 µM

---

- Test system: HT29 colon
- Experiment Description: NCI tumour cell line growth inhibition, 48 h; in the data active = GI50 below about 0.43 µM; inactive = the rest
Outcomes you can answer with include only these: active, inactive

What is the recorded call for this compound in the test? CC(C)=CCCC(C)c1ccc(C)c2c1OCN(CC1CCNCC1)C2 (configuration not stated)
inactive

What is the recorded call for this compound in the test? CC(O)c1cccc(NCc2c3ccccc3c(=O)n3c2oc2ccccc23)c1 (configuration not stated)
inactive

What is the recorded call for this compound in the test? CCN(CC)CC(O)CNc1ccc(NCC2CO2)c2c1C(=O)c1ccccc1C2=O (configuration not stated)
active

What is the recorded call for this compound in the test? O=c1c2c(nc3n1CCS3)[nH]c1ccccc12
inactive

What is the recorded call for this compound in the test? COc1cc2c(cc1OCCCOc1cc3c(cc1OC)C(=O)N1C[C@H](F)C[C@H]1C=N3)N=C[C@@H]1C[C@@H](F)CN1C2=O
inactive

Switching to the query record.
What is the recorded call for this compound in the test? CCOC(=O)c1cc(C#N)c(=O)n(/N=C(\C)c2ccncc2)c1O
inactive

---

- System: SW-620 colon
- Experiment Description: NCI tumour cell line growth inhibition, 48 h
Listing of entries alongside the reported TGI.

Known results for molecules:
Reported TGI for SW-620 colon, given O=C1c2cccc3cc([N+](=O)[O-])cc(c23)C(=O)N1CCCN1CCN(CCCNc2ccc3ncn4c5ccccc5c(=O)c2c34)CC1 ?
> 50 µM

Reported TGI for SW-620 colon, given COc1c2nc(CCl)[nH]c(=O)c2c(OC)c2nc(CCl)[nH]c(=O)c12 ?
> 100 µM

Reported TGI for SW-620 colon, given CC[C@H](NC(=O)[C@H](C)NC)C(=O)N1C[C@@H](O)C[C@H]1Cc1c(-c2[nH]c3cc(F)ccc3c2C[C@@H]2C[C@H](O)CN2C(=O)[C@H](CC)NC(=O)[C@H](C)NC)[nH]c2cc(F)ccc12 ?
> 100 µM

Others:
Reported TGI for SW-620 colon, given CN1CCC2(CC1)SC[C@H]1C(=O)N(c3ccc(Cl)cc3)C(=O)N12 ?
> 100 µM

---

- System: ACHN renal
- Experiment Description: NCI tumour cell line growth inhibition, 48 h
Readout Kind: TGI (µM)
The reply should be a number in µM, with the unit left off.

So what does the record say about TGI for CC1(C)C2CCC3=C(CCC4(C)C5C[C@](C)(C(=O)O)CC[C@]5(C)CC[C@]34C)[C@@]2(C)CC[C@@H]1O (stereo partly specified) ?
29.9

So what does the record say about TGI for C=C1C(=O)C23CC1C[C@H](OC(C)=O)[C@H]2C1(C)C(OC(C)=O)C[C@H](O)C(C)(C)[C@H]1C(=O)[C@@H]3OC(C)=O (stereo partly specified) ?
14.1

Others:
So what does the record say about TGI for CC(C)(C)[Si](C)(C)O[C@@H](C(=O)OC1C=CCCC1)[C@@H](NC(=O)c1ccccc1)c1ccccc1 (stereo partly specified) ?
62.9

So what does the record say about TGI for O=c1c2cc(Cl)ccc2oc2ccc(OCCCCCN3CCCCC3)cc12 ?
11.2

So what does the record say about TGI for CN[C@@H](C)C(=O)N[C@H](C(=O)N1CCC[C@H]1C(=O)N[C@H]1c2ccccc2C[C@H]1OCC#CC#CCO[C@@H]1Cc2ccccc2[C@@H]1NC(=O)[C@@H]1CCCN1C(=O)[C@@H](NC(=O)[C@H](C)NC)C1CCCCC1)C1CCCCC1 ?
28.5

So what does the record say about TGI for O=C(/C=C/c1ccc([N+](=O)[O-])o1)N1CCN(Cc2ccccc2)CC1 ?
28.3

So what does the record say about TGI for O=C(c1ccccc1)c1ccc2nc3n(c2c1)C(c1c(F)cccc1F)SC3 (stereo unspecified) ?
24.8

So what does the record say about TGI for ClCc1cccc(Cn2cnc3c(NC45CC6CC(CC(C6)C4)C5)ncnc32)c1 ?
30.5

So what does the record say about TGI for O=c1[nH]c(C23CC4CC(CC(C4)C2)C3)cc2c1c(=O)oc1ccccc12 ?
10.6

So what does the record say about TGI for O=S(=O)(NC1=NCCN1C(=S)SN1CCn2c1nsc2=S)c1ccc(Br)cc1 ?
73.6

So what does the record say about TGI for CCCCCCCCC[C@@H]1CC(=O)OCC2OC(O[C@H](CCCCCCCCC)CC(=O)OCC3OC(O[C@H](CCCCCCCCC)CC(=O)OCC4OC(O1)C(O)C(O)C4O)C(O)C(O)C3O)C(O)C(O)C2O (stereo partly specified) ?
26.1

So what does the record say about TGI for COC(=O)c1cc2c(cc1Cl)SC(N(N(C)C)S(=O)(=O)c1ccc(Br)s1)=NS2(=O)=O ?
54.1

So what does the record say about TGI for O=[N+]([O-])c1cccc(C2N3CCCCC3[C@@H]3c4[nH]c5ccccc5c4CCN23)c1 (stereo partly specified) ?
38.7

So what does the record say about TGI for Cc1nc2sc(C(=O)Nc3cccc(Cl)c3C)c(N)c2cc1C(=O)/C=C/c1ccccc1 ?
1.09

So what does the record say about TGI for O=C1Nc2ccc(C(=O)c3ccco3)cc2/C1=C/c1cc(Cl)c(O)c(Cl)c1 ?
11.1

---

- Tested on: RXF 393 renal
- Experiment Description: NCI tumour cell line growth inhibition, 48 h
Listing of entries alongside the reported TGI.
The reply should be a number in µM, with the unit left off.

So what does the record say about TGI for Cc1cc(C)nc(NS(=O)(=O)c2ccc(NNc3c4ccccc4nc4c(C(=O)Nc5ccc(S(=O)(=O)Nc6ncccn6)cc5)cccc34)cc2)n1 ?
80.1

Next:
So what does the record say about TGI for CSc1ccc(C2=NN(C(=O)c3ccc(F)cc3)C(c3ccc(F)cc3)C2)cc1 (stereo not given) ?
20

---

- Tested on: NCI-H23 lung
- Experiment Description: NCI tumour cell line growth inhibition, 48 h
Readout Kind: TGI (µM)
The reply should be a number in µM, with the unit left off.

Known results for compounds:
So what does the record say about TGI for O=S(=O)(N/N=C/c1ccc(/C=N/NS(=O)(=O)c2ccccc2)cc1)c1ccccc1 ?
66.8

So what does the record say about TGI for C=C1C(=O)O[C@H]2[C@H]1CC/C(CNC(=O)c1cc3cc(OC)ccc3[nH]1)=C\CC[C@@]1(C)O[C@@H]21 ?
4.38

So what does the record say about TGI for O=C(Nc1ccc(Cl)cc1)C(=O)C(C(=O)c1ccccc1-c1ccccc1)C1OC(=O)c2ccccc21 (configuration not stated) ?
53.4

Others:
So what does the record say about TGI for O=C1Nc2ccc(C(=O)c3ccco3)cc2/C1=C/c1cc(Cl)c(O)c(Cl)c1 ?
21.7

So what does the record say about TGI for CN1C2CCC1CC(CCOC(c1ccc(F)cc1)c1ccc(F)cc1)C2 (configuration not stated) ?
42.1

So what does the record say about TGI for CC(C)=CCC[C@@H](C)C1=C(O)C(O)C(C)=C2N=C(c3ccccc3)C(=O)OC21 (some centres not stated) ?
6.15

---

Listing of entries alongside the reported TGI.
- Tested on: MALME-3M melanoma
- Experiment Description: NCI tumour cell line growth inhibition, 48 h

So what does the record say about TGI for CCOC(=O)Nc1nc2ccc(Cn3cccc3)cc2[nH]1 ?
> 100 µM

---

- Test system: HCC-2998 colon
- Experiment Description: NCI tumour cell line growth inhibition, 48 h
Listing of entries alongside the reported TGI.

Known results for molecules:
So what does the record say about TGI for CC(=O)Nc1ccc(C(=O)NN2C(=O)C(Cl)C2c2ccc(Cl)cc2)cc1 (configuration not stated) ?
> 100 µM

So what does the record say about TGI for CC(=O)[O-].CC(=O)[O-].[Pt+2].c1cscn1.c1cscn1 ?
> 100 µM

So what does the record say about TGI for Cc1cc(C)nc(NS(=O)(=O)c2ccc(NNc3c4ccccc4nc4c(C(=O)Nc5ccc(S(=O)(=O)Nc6ncccn6)cc5)cccc34)cc2)n1 ?
51.2 µM

Others:
So what does the record say about TGI for CC(C)(C)O/C=C1/C(=O)OC2C[C@@H](O[Si](C)(C)C(C)(C)C)CC12 (some centres not stated) ?
> 100 µM

So what does the record say about TGI for CN[C@@H](C)C(=O)N[C@H](C(=O)N1CCC[C@H]1C(=O)N[C@H]1c2ccccc2C[C@H]1OCC#CC#CCO[C@@H]1Cc2ccccc2[C@@H]1NC(=O)[C@@H]1CCCN1C(=O)[C@@H](NC(=O)[C@H](C)NC)C1CCCCC1)C1CCCCC1 ?
4.45 µM

So what does the record say about TGI for Cc1cc(C)c([O-])c(CN(C)CCN(C)Cc2cc(C)cc(C)c2[O-])c1.O=C([O-])c1cccc(C(=O)[O-])n1.[Ti+4] ?
> 100 µM

So what does the record say about TGI for CCCCc1c2c(nc3c1CCC/C3=C\c1ccccc1)C(=O)CCC2 ?
35.2 µM
